- experimentalSystem: wild-type MTH0830 RFAP synthase (Methanothermobacter thermautotrophicus)
- test: Isothermal titration calorimetry, wild-type enzyme
- Format: binding
- conditionInfo: ITC, 35 °C; read-out: KD for PRPP
- Procedure: The ITC conditions previously established for M. jannaschii RFAP synthase were modified for the RFAP synthase from M. thermautotrophicus. Partially purified wild-type (heat-treated at 65 °C) and variant (heat-treated at 50 °C) RFAP synthases (2–5 mL) were dialyzed against two changes of buffer (250 mL each of 50 mM Tris, 100 mM NaCl, pH 7.6). […] All ITC measurements were carried out using a NANO-ITC isothermal titration calorimeter (TA Instruments, New Castle, DE). […]
reportedEndpoint: pKd
Please keep in mind that pKd is minus log10 of the molar concentration; only the number is needed.

Which measured pKd value corresponds to O=P(O)(O)OC[C@H]1OC(OP(=O)(O)OP(=O)(O)O)[C@H](O)[C@@H]1O (stereo partly shown) [PRPP, phosphoribosyl-pyrophosphate] ?
2.68

---

- experimentalSystem: MTH0830 RFAP synthase R26K variant (Methanothermobacter thermautotrophicus, UniProt O26918, R26K)
- Sequence (O26918 1-329 R26K): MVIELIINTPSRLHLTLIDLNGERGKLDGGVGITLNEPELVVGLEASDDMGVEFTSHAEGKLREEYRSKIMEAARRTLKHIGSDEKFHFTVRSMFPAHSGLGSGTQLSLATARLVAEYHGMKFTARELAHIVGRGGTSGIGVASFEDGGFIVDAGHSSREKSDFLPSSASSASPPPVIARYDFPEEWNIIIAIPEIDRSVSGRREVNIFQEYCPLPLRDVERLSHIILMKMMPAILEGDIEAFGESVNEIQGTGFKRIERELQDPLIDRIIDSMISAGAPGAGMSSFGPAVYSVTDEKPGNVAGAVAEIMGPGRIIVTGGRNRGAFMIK
- test: Isothermal titration calorimetry, R26K variant
reportedEndpoint: pKd
Lab note — pKd values are minus log10 of concentrations in M.

If you can, please state the reported pKd value of O=P(O)(O)OC[C@H]1OC(OP(=O)(O)OP(=O)(O)O)[C@H](O)[C@@H]1O (stereo partly shown) [PRPP, phosphoribosyl-pyrophosphate] .
2.62

---

- experimentalSystem: MTH0830 RFAP synthase D19N variant (Methanothermobacter thermautotrophicus, UniProt O26918, D19N)
- Sequence (O26918 1-329 D19N): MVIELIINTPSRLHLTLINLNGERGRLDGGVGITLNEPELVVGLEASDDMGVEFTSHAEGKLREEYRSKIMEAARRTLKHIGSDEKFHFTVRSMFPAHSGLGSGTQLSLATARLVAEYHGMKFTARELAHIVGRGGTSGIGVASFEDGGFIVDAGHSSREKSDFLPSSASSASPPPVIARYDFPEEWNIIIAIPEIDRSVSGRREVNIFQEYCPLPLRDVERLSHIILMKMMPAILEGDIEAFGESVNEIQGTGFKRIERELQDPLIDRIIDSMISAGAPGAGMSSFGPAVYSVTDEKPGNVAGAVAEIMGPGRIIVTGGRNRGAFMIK
- test: Isothermal titration calorimetry, D19N variant
reportedEndpoint: pKd
Please treat pKd as minus the base-10 logarithm of the molar concentration.

Tell me the measured pKd of O=P(O)(O)OC[C@H]1OC(OP(=O)(O)OP(=O)(O)O)[C@H](O)[C@@H]1O (stereo partly shown) [PRPP, phosphoribosyl-pyrophosphate] , please.
2.70
